target: T1, human MSLN-R3-his protein (human, UniProt Q13421 487-598); assay: ELISA on coated antigen, antibody 0.1 nM
T1 construct: Self-made in HEK293E cells; also called human MSLN-R3 protein; hMSLN-R3-his; not shown: His tag
T1 sequence (Q13421 495-606): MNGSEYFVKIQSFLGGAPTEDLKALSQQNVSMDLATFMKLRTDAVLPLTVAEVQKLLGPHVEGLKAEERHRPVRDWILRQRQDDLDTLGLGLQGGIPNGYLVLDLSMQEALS
Reported OD450 values for the following binders.
Could you give me the number in OD450? Just the number is fine.

| binder | observation_type | meas_value |
| --- | --- | --- |
| S009-F2.13.3 (antibody, human IgG1, kappa, V domains shown, Human-murine chimeric antibody: murine VH/VL on human IgG1 heavy and kappa light constant regions) VH: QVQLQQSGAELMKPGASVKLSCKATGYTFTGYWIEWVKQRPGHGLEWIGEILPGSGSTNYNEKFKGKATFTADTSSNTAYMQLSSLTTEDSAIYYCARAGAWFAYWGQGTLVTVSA VL: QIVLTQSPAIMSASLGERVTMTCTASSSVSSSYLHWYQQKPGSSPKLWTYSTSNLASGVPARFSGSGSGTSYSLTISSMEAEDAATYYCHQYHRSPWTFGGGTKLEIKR | OD450 | 0.05 |
| S009-F2.16.10 (antibody, human IgG1, kappa, V domains shown, Human-murine chimeric antibody: murine VH/VL on human IgG1 heavy and kappa light constant regions) VH: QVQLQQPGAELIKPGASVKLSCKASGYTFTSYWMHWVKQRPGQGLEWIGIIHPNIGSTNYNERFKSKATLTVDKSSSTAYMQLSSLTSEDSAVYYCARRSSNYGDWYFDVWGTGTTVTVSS VL: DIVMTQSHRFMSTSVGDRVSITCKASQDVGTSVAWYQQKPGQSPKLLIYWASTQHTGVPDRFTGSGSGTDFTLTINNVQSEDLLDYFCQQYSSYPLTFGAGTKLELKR | OD450 | 0.05 |

# ---- query binder ----
Please supply the value of reported OD450 for the item S009-F2.23.12 (antibody, human IgG1, kappa, V domains shown, Human-murine chimeric antibody: murine VH/VL on human IgG1 heavy and kappa light constant regions) VH: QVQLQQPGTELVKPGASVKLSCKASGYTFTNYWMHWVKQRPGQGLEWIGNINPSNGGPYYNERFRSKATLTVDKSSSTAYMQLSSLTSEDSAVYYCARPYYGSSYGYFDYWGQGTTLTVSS VL: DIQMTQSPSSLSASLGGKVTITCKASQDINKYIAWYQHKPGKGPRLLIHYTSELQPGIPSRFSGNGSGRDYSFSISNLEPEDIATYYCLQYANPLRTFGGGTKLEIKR
0.09
